Tested on: T-24
Test: Phototoxicity against human T24 cells assessed as reduction in cell growth preincubated with compound for 24 hrs under dark condition and measured after 48 hrs by SRB assay
Format: functional, cell-based
Conditions: T-24, light or radiation study
pEC50: −log10 of the molar value.
MEASURE: pEC50

A selection of reference data follows.
COc1c(O)c(O)c2c(c1O)C(=O)c1cc(C)cc(O)c1C2=O	4.61
Cc1cc(O[C@@H]2O[C@H](CO)[C@@H](O)[C@H](O)[C@H]2O)c2c(c1)C(=O)c1cc(O[C@@H]3O[C@H](CO)[C@@H](O)[C@H](O)[C@H]3O)cc(O)c1C2=O	< 4.60
COc1c(O)c(O)c2c(c1O)C(=O)c1cc(C)cc(O[C@@H]3O[C@H](CO)[C@@H](O)[C@H](O)[C@H]3O)c1C2=O	< 4.60

# input Query: pEC50; subject: Cc1cc(O)c2c(c1)C(=O)c1cc(O)cc(O)c1C2=O [EMODIN]
# output < 4.60

# input What value of pEC50 has been reported for the following molecule? Cc1cc(O[C@@H]2O[C@H](CO)[C@@H](O)[C@H](O)[C@H]2O)c2c(c1)C(=O)c1cc(O)cc(O)c1C2=O
# output < 4.60
